# assay overview: Cytoprotective activity against glutamate/glycine-induced cell death in mouse L-M(TK-) cells assessed as increase in cell viability incubated for 30 mins followed by glutamate/glycine stimulation and measured after 6 hrs by LDH assay
# Type: functional, cell-based
observation type: IC50 (nM)
Please reply with the bare figure in nM and do not write the unit itself.

query: Report IC50 for c1ccc(CCCCN2CCCc3ccccc3CC2)cc1 please.
result: 890

query: Report IC50 for c1ccc(CCCN2CCCc3ccccc3CC2)cc1 please.
result: 7800

query: Report IC50 for CC(C(O)c1ccc(O)cc1)N1CCC(Cc2ccccc2)CC1 (stereo not drawn) please.
result: 590

* * *

# target of assay: Glutamate receptor ionotropic, NMDA 2B (Homo sapiens, UniProt Q05586+Q13224)
# Sequence (Q13224 whole entry, one chain of several): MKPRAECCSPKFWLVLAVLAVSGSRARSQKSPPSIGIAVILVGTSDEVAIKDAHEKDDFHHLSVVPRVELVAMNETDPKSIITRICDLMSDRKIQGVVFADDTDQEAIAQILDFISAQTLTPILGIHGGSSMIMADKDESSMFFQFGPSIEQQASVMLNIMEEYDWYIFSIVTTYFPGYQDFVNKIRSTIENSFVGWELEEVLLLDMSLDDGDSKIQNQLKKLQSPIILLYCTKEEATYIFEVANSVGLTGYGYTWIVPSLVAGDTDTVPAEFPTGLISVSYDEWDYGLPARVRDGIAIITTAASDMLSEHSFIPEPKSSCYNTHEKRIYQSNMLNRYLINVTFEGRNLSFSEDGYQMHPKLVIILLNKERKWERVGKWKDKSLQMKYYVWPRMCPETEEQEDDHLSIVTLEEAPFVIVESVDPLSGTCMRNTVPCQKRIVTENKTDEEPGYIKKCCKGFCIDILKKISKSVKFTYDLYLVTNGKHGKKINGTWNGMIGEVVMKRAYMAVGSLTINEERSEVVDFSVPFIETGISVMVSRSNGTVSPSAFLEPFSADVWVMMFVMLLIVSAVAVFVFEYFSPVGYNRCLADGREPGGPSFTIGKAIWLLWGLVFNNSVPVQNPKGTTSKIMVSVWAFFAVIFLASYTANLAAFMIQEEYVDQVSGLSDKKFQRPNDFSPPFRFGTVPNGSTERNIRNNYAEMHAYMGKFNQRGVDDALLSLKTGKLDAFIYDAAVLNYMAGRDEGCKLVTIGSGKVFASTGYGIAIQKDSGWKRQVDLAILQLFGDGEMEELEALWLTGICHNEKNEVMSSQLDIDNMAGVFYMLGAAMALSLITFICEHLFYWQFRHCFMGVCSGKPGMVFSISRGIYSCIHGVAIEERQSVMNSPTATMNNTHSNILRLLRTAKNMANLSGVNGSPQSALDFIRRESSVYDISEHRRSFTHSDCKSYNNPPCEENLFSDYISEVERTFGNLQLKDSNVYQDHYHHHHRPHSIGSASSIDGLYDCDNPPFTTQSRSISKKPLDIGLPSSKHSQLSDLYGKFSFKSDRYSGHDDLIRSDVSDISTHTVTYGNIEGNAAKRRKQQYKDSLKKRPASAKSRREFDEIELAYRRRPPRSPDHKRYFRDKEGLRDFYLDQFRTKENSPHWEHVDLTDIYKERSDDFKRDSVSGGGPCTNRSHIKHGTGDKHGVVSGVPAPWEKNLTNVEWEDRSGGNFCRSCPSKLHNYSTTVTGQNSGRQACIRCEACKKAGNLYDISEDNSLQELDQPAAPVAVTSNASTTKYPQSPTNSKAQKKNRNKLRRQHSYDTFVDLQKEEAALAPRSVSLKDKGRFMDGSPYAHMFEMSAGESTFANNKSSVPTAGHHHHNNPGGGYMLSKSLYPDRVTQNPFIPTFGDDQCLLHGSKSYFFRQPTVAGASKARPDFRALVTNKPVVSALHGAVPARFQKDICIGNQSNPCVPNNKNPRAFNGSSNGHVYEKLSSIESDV
# assay overview: Displacement of [3H]ifenprodil from human GluN2B expressed in mouse L(tk-) cell membranes co-expressing GluN1a incubated for 2 hrs by scintillation counting method
observation type: pKi
# pKi = -log10(concentration in molar units)

query: Report pKi for c1ccc(CNC2CCc3ccccc3C2)cc1 (stereo not drawn) please.
result: 5.40

query: Report pKi for c1ccc(CCCCNC2CCc3ccccc3C2)cc1 (stereo not drawn) please.
result: 6.58

query: Report pKi for c1ccc(CCCN2CCCc3ccccc3CC2)cc1 please.
result: 7.44

query: Report pKi for c1ccc(CCCCN2CCCc3ccccc3CC2)cc1 please.
result: 7.49

query: Report pKi for c1ccc(C2CCN(C3Cc4ccccc4C3)CC2)cc1 please.
result: 8.35

query: Report pKi for c1ccc(CC2CCN(C3Cc4ccccc4C3)CC2)cc1 please.
result: 8.49

query: Report pKi for c1ccc(CC2CCN(C3CCc4ccccc4C3)CC2)cc1 (stereo not drawn) please.
result: 8.10

query: Report pKi for c1ccc(CCCNC2CCc3ccccc3C2)cc1 (stereo not drawn) please.
result: 6.79

query: Report pKi for c1ccc(CCNC2CCc3ccccc3C2)cc1 (stereo not drawn) please.
result: 6.63

query: Report pKi for c1ccc(CCCNC2Cc3ccccc3C2)cc1 please.
result: 6.93

query: Report pKi for c1ccc(C2CCN(C3CCc4ccccc4C3)CC2)cc1 (stereo not drawn) please.
result: 8.08

query: Report pKi for c1ccc(CCNC2Cc3ccccc3C2)cc1 please.
result: 6.34

query: Report pKi for c1ccc(CCCCNC2Cc3ccccc3C2)cc1 please.
result: 7.18
